FYI, the data here is from PubChem BioAssay (NCATS).

Experiment: qHTS assay for measurement of the activity of small molecule inhibitors on Zika virus induced Caspase-3 activity in human astrocytoma cells (AID 1224859);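 further: plate controls were ZIKV-infected untreated cells for no effect and uninfected cells for full effect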
Conditions: SNB-19 ZIKV-induced caspase-3/7, luminescence, 6 h; series mostly up to 45.7 µM
Active and inactive are the calls of the source. The call rests on the fitted dose curve; in most records, active means well fitted inhibition curve with a large enough effect; inconclusive means small, poorly fitted or top-dose-only effect; inactive means no such curve, though single readings can be large or run the other way.
recorded_endpoint: outcome

| compound | measured |
| --- | --- |
| Nc1c2c(nc3ccccc13)CCCC2O (configuration not stated) | inactive |
| CCCN(CCC)CCc1cccc2c1CC(=O)N2 | inactive |
| NC(N)=N/N=C/c1c(Cl)cccc1Cl | inactive |
| O=c1[nH]c(=O)n([C@H]2C[C@H](O)[C@@H](CO)O2)cc1Br | inactive |
| NS(=O)(=O)c1cc2c(cc1Cl)NC(C1CC3C=CC1C3)NS2(=O)=O (configuration not stated) | inactive |

Next, consider the following compound.
Recorded outcome (compound `CCN(CC)CCOCCOC(=O)C1(c2ccccc2)CCCC1` ): inactive

---

Tested on: Es-2
Assay: Primary qHTS to identify gynecologic anti-cancer compounds using libraries of approved drugs and bioactive compounds (AID 1345084); further: nearly all actives have a fitted effect of over 55% in size
Settings: Gynecologic cancer cell panel viability, ATPlite luminescence, 48 h; series mostly up to 57.5 µM
Records with an inconclusive call do not appear. The source made the active and inactive calls. The call rests on the fitted dose curve; in most records, active means well fitted cell-killing curve with a large enough effect; inconclusive means small, poorly fitted or top-dose-only effect, or effect the other way; inactive means flat fitted curve, though single readings scatter.
recorded_endpoint: activity change, negative = cytotoxicity

Please review the following examples before continuing.
| compound | activity change, negative = cytotoxicity |
| --- | --- |
| NC(N)=NC(=O)Cc1c(Cl)cccc1Cl | inactive |
| COC(=O)[C@H]1[C@H]2C[C@@H]3c4[nH]c5cc(OC)ccc5c4CCN3C[C@H]2C[C@@H](OC(=O)c2cc(OC)c(OC)c(OC)c2)[C@@H]1OC | inactive |
| CCCCOCCOCCOCc1cc2c(cc1CCC)OCO2 | inactive |
| Cc1nc2ccccn2c(=O)c1CCN1CCC(C(=O)c2ccc(F)cc2)CC1 | inactive |

Documented activity change, negative = cytotoxicity of `CCCN1C[C@H](CSC)C[C@@H]2c3cccc4[nH]cc(c34)C[C@H]21` : inactive

---

Experiment: MultiTox-Fluor Cytotoxicity Assay - LYMP1-002 - Dead Cells (AID 960); further: nearly all actives have a fitted effect of over 60% in size
Details: LYMP1-002 lymphoblastoid cells, dead-cell protease fluorescence; series mostly up to 46.1 µM
Records with an inconclusive call do not appear. Calls of active or inactive are those of the source. Calls come from the whole dose curve; as a rule, active = well fitted cell-killing curve with a large enough effect; inconclusive = small, poorly fitted or top-dose-only effect, or effect the other way; inactive = no such curve, though single readings can be large or run the other way.
Pick from true (1) (active), false (0) (inactive) when you respond.

These solved cases illustrate the format of a correct answer.
| smiles_repr | label_class |
| --- | --- |
| O=c1[nH]c(=O)n([C@H]2C[C@H](O)[C@@H](CO)O2)cc1Br | false (0) |
| NC(=O)N1c2ccccc2C=Cc2ccccc21 | false (0) |
| COC(=O)[C@H]1[C@H]2C[C@@H]3c4[nH]c5cc(OC)ccc5c4CCN3C[C@H]2C[C@@H](OC(=O)c2cc(OC)c(OC)c(OC)c2)[C@@H]1OC | true (1) |
| COc1cc(Cc2cnc(N)nc2N)cc(OC)c1OC | false (0) |
| CCCCNC(=O)NS(=O)(=O)c1ccc(C)cc1 | false (0) |
| CCCCOCCOCCOCc1cc2c(cc1CCC)OCO2 | false (0) |

Now for another entry.
## Task Per the records of this test, what outcome belongs to `CN=C(NC#N)NCCSCc1nc[nH]c1C` ?
## Result false (0)
